Reference source: PubChem BioAssay (NCI)

Test system: A549 NSCLC
Assay: NCI tumour cell line growth inhibition, 48 h
I'd be grateful if you could share measured TGI for these entries.

Ask: If you can, please state the reported TGI value of COc1cc(C(=O)c2cnc(-c3c[nH]c4cccc(C)c34)[nH]2)cc(OC)c1OC .
Result: > 100 µM

Ask: Query COc1ccc(-c2nsc3c2NC(=O)CC3c2ccsc2)cc1 (stereo not given) next
Result: > 100 µM

Ask: Ok, now Cc1c2cc[n+](Cc3ccc(I)cc3)cc2c(C)c2c1[nH]c1ccccc12
Result: > 25 µM

Ask: // same read-out, input: CN1NC(c2ccc(Cl)cc2)=C(C#N)C(=O)CC1c1ccccc1 (stereo not given)
Result: > 100 µM

Ask: How about this compound: O=P(CN1CCOCC1)(c1ccccc1)c1ccccc1
Result: > 100 µM

Ask: // repeat for CCCN1C(=O)/C(=C/c2ccc(SC(F)(F)F)cc2)SC1=Nc1ccc(OC)cc1 and report
Result: 30.1 µM

Ask: Likewise for CCn1c(-c2nonc2N)nc2ccccc21 ?
Result: > 25 µM

Ask: Request: CC(C)c1ccc(O)c(Cc2cc(C(C)C)cc(Cc3cc(C(C)C)ccc3O)c2O)c1
Result: 3.96 µM

Ask: Quick one: O=C1Cc2cc3ccccc3nc2-c2ccccc2N1
Result: > 100 µM

Ask: Next compound up: CC1(C)CC(O)CC(C)(C)N1O
Result: > 100 µM

Ask: Follow-up item: O=c1cc(-c2ccccc2)oc2ccc(Cl)cc12
Result: > 100 µM

Ask: // same read-out, input: COc1cc(N=Nc2cc(Cc3ccc(N(C)C)cc3)c(N)cc2N(C)C)c2ncccc2c1
Result: 2.39 µM

Ask: Same thing, different compound: S=c1ncc(-c2cncc(-c3cnc(=S)[nH]c3)n2)c[nH]1
Result: > 100 µM

Ask: For Oc1c(Br)cc2c(c1Br)-c1c(c(O)c3c4c1=NCCC=4C=N3)NCC2 then?
Result: > 80.8 µM

Ask: Also Clc1ccc2c(NCCNc3nc(N4CCOCC4)nc4ccccc34)ccnc2c1 ?
Result: 10.6 µM

Ask: Would you mind doing COc1ccc2nc3ccccc3c(NCCNCCO)c2c1 as well?
Result: 7.81 µM

Ask: Next entry: C[N+](C)(C)CC1CCC(C[N+](C)(C)C)C1=NO (stereo not given)
Result: > 100 µM

Ask: # repeat for COC1OC2COC(=O)c3cc(O)c(O)c(O)c3-c3c(cc(O)c(O)c3O)C(=O)OC2C(O)C1O (stereo not given)
Result: > 100 µM

Ask: Same for Cc1ccc(-c2nc(NCCOCCOCCN)nc(N3CCN(c4ccccn4)CC3)n2)cc1
Result: 36.3 µM

Ask: How about CC(=O)Oc1ccc2cc(Oc3cc(Cl)c(Cl)cc3Cl)c(=O)oc2c1 ?
Result: 40.2 µM

* * *

System: SK-MEL-5 melanoma
Test: NCI tumour cell line growth inhibition, 48 h
measuredQuantity: TGI (µM)
Numeric answer only, unit µM assumed.

Ask: I would be grateful if you could share the reported TGI for COc1cc(-c2nc(-c3ccccc3)c(-c3ccccc3)[nH]2)cc(OC)c1O .
Result: 27.6

Ask: And then CC(=O)c1csc2c1C(=O)c1ccccc1C2=O , what is it?
Result: 0.376

Ask: Lookup Clc1ccc2c(NCCNc3nc(N4CCOCC4)nc4ccccc34)ccnc2c1
Result: 3.15
